Catalogue of GI50 readings, one per entry.
Tested on: SN12C renal
Test: NCI tumour cell line growth inhibition, 48 h
Quantity name: GI50

[[record]]
compound = "N/C(=N\\c1nc2ccccc2s1)NC(=NC1CCCCC1)NC1CCCCC1"
experimental_system = "SN12C renal"
quantity_name = "GI50"
recorded_result = "1610 nM"

[[record]]
compound = "CCSc1nc(N)c(C#N)c(-c2ccco2)c1C#N"
experimental_system = "SN12C renal"
quantity_name = "GI50"
recorded_result = "> 100000 nM"

[[record]]
compound = "Nc1ncccc1-c1nc2ccc(-c3ccccc3)nc2n1-c1ccc(C2(N)CCC2)cc1"
experimental_system = "SN12C renal"
quantity_name = "GI50"
recorded_result = "2290 nM"

[[record]]
compound = "COc1ccc(Oc2ccccc2NC(=O)CNC(=O)c2cccc3ccccc23)cc1"
experimental_system = "SN12C renal"
quantity_name = "GI50"
recorded_result = "2300 nM"

[[record]]
compound = "Nc1n[nH]c2ccc([C@@H]3Nc4cc5[nH]ncc5cc4[C@H]4C5CCC(C5)[C@@H]34)cc12 (stereo partly specified)"
experimental_system = "SN12C renal"
quantity_name = "GI50"
recorded_result = "525 nM"

[[record]]
compound = "COc1ccc2c(c1)C(=O)c1c-2n(CCCN)c(=O)c2cc([N+](=O)[O-])ccc12"
experimental_system = "SN12C renal"
quantity_name = "GI50"
recorded_result = "< 10 nM"

[[record]]
compound = "O=c1cccc(C#CC#CCCCO)o1"
experimental_system = "SN12C renal"
quantity_name = "GI50"
recorded_result = "5210 nM"

[[record]]
compound = "Cc1c2ccncc2c(C)c2c1c1cc(CO)ccc1n2C"
experimental_system = "SN12C renal"
quantity_name = "GI50"
recorded_result = "442 nM"

[[record]]
compound = "CCC[CH2][Sn]([CH2]CCC)([O]C(=O)/C=C/c1ccccc1F)[O]C(=O)/C=C/c1ccccc1F"
experimental_system = "SN12C renal"
quantity_name = "GI50"
recorded_result = "1030 nM"

[[record]]
compound = "COc1cc(/C=C/[N+](=O)[O-])cc(OC)c1OC"
experimental_system = "SN12C renal"
quantity_name = "GI50"
recorded_result = "2510 nM"

[[record]]
compound = "COc1cccc(C2C(C#N)=C(N)Oc3c2ccc2ccccc32)c1 (stereo unspecified)"
experimental_system = "SN12C renal"
quantity_name = "GI50"
recorded_result = "40.6 nM"


* * *

System: SN12C renal
Assay: NCI tumour cell line growth inhibition, 48 h
The entries below are paired with their reported GI50.
Quantity name: GI50

[[record]]
molecule = "O=C1/C(=C/c2cccc(Br)c2)COc2ccc(O)c(O)c21"
recorded_result = "1.2 µM"

[[record]]
molecule = "O=S(=O)(NC1=NCCN1C(=S)SN1CCn2c1nsc2=S)c1cccc(OC(F)(F)F)c1"
recorded_result = "11.3 µM"

[[record]]
molecule = "CCN(CC)CCCC(C)Nc1c(-c2ccccc2)cnc2cc(Cl)ccc12 (stereo not given)"
recorded_result = "8.9 µM"

[[record]]
molecule = "COc1ccc2c(c1)/C(=C\\c1c[nH]c3ccc(OC)cc13)C(=O)N2"
recorded_result = "3.07 µM"

[[record]]
molecule = "CCN1C(=O)N(CC)C2C1NN=c1s/c(=C\\c3ccc[nH]3)c(=O)n12 (stereo not given)"
recorded_result = "0.991 µM"

